Test system: HCC70 cells
Experiment: Inhibition of cell proliferation, CyQUANT Direct, HCC70
Assay type: cell-based, human
Conditions: Homo sapiens; HCC70 triple negative breast cancer cells, 72-hour; read-out: HCC 70 proliferation calculated IC50
Method: HCC70 and MB453 cells are cell lines derived from human triple negative breast cancer. COV318 and COV504 cells are cell lines derived from human ovarian cancer. Representative compounds of the invention were tested at different concentrations (from 4 μM to 126.4 pM; 0.5 log serial dilutions) for their ability to inhibit the proliferation of each of these cell lines. […]
pIC50: −log10 of the molar value.
Please respond with reported pIC50 for every item in the list.

Below, each entry is followed by its recorded pIC50 result.
INSERT INTO results (compound, obs_value) VALUES
  ('Cc1noc(C)c1-c1ccc2c(-c3nc(N[C@H]4CCC[C@@H]4N)ncc3C(F)(F)F)c[nH]c2c1', '6.30 to 7.00'),
  ('N#Cc1ccc2c(-c3nc(N[C@@H]4CC[C@H]4N4CCOCC4)ncc3C(F)(F)F)c[nH]c2c1', '< 5.70'),
  ('Cc1noc(C)c1-c1ccc2c(-c3nc(N[C@H]4CCC[C@@H]4N4CCCC4)ncc3C(F)(F)F)c[nH]c2c1', '6.30 to 7.00');

Look at each compound and report its pIC50.
1. CC(=O)N[C@H]1CC[C@@H]1Nc1ncc(C(F)(F)F)c(-c2c[nH]c3cc(C#N)ccc23)n1
2. Cc1noc(C)c1-c1ccc2c(-c3nc(N[C@@H]4C[C@@H]5CC[C@H]4N5)ncc3C(F)(F)F)c[nH]c2n1
3. COCCNC1CCC[C@@H]1Nc1ncc(C(F)(F)F)c(-c2c[nH]c3nc(-c4c(C)noc4C)ccc23)n1 (stereo in doubt)
4. COCCN[C@H]1CC[C@@H]1Nc1ncc(C(F)(F)F)c(-c2c[nH]c3cc(C#N)ccc23)n1

### Response
["< 5.70", "> 7.00", "6.30 to 7.00", "5.70 to 6.30"]

Look at each compound and report its pIC50.
1. N#Cc1ccc2c(-c3nc(N[C@H]4C[C@H]5CC[C@@H]4N5)ncc3C(F)(F)F)c[nH]c2c1
2. N[C@H]1CCC[C@@H]1Nc1ncc(C(F)(F)F)c(-c2c[nH]c3cc(-c4nccs4)ccc23)n1
3. CCN[C@H]1CCC[C@@H]1Nc1ncc(C(F)(F)F)c(-c2c[nH]c3cc(C#N)ccc23)n1

### Response
1. 6.30 to 7.00
2. 6.30 to 7.00
3. > 7.00

Look at each compound and report its pIC50.
1. Cc1noc(C)c1-c1ccc2c(-c3nc(N[C@H]4CC[C@@H]4N)ncc3C(F)(F)F)c[nH]c2n1
2. Cc1noc(C)c1-c1ccc2c(-c3nc(N[C@@H]4C[C@H]5CC[N@](CC5)C4)ncc3C(F)(F)F)cn(S(=O)(=O)c3ccccc3)c2n1
3. CC(C)N1CC[C@H](Nc2ncc(C(F)(F)F)c(-c3c[nH]c4cc(C#N)ccc34)n2)C1
4. N#Cc1ccc2c(-c3nc(N[C@@H]4CNC[C@H]4F)ncc3C(F)(F)F)c[nH]c2c1 (relative stereo)
5. CN(C)[C@H]1CC[C@@H]1Nc1ncc(C(F)(F)F)c(-c2c[nH]c3cc(C#N)ccc23)n1

### Response
1: 6.30 to 7.00; 2: 6.30 to 7.00; 3: < 5.70; 4: 5.70 to 6.30; 5: < 5.70

Look at each compound and report its pIC50.
1. COC1CCN([C@H]2CCC[C@@H]2Nc2ncc(C(F)(F)F)c(-c3c[nH]c4nc(-c5c(C)noc5C)ccc34)n2)C1 (stereo partly shown)
2. Cc1noc(C)c1-c1ccc2c(-c3nc(N[C@H]4CCC[C@@H]4N4CC(F)C4)ncc3C(F)(F)F)c[nH]c2n1
3. N#Cc1ccc2c(-c3nc(N[C@@H]4C[C@@H]5CC[C@H]4N5)ncc3C(F)(F)F)c[nH]c2c1
4. N#Cc1ccc2c(-c3nc(N[C@H]4CCC[C@@H]4N)ncc3C(F)(F)F)c[nH]c2c1
5. Cc1noc(C)c1-c1ccc2c(-c3nc(N[C@H]4C[C@H]5CC[C@@H]4N5)ncc3C(F)(F)F)c[nH]c2n1
6. N#Cc1ccc2c(-c3nc(N[C@H]4Cc5ccccc5[C@@H]4N)ncc3C(F)(F)F)c[nH]c2c1
7. N#Cc1ccc2c(-c3nc(N[C@H]4CCCC[C@@H]4N)ncc3C(F)(F)F)c[nH]c2c1
8. Cc1noc(C)c1-c1ccc2c(-c3nc(N[C@H]4CCC[C@@H]4NCCO)ncc3C(F)(F)F)c[nH]c2n1

### Response
["6.30 to 7.00", "< 5.70", "5.70 to 6.30", "6.30 to 7.00", "6.30 to 7.00", "6.30 to 7.00", "< 5.70", "> 7.00"]

Look at each compound and report its pIC50.
1. Cc1noc(C)c1-c1ccc2c(-c3nc(N[C@H]4CCC[C@H]4N4CC(O)C4)ncc3C(F)(F)F)c[nH]c2n1
2. C[C@@H]1C[C@H](Nc2ncc(C(F)(F)F)c(-c3c[nH]c4cc(C#N)ccc34)n2)CN1
3. CC(=O)N[C@H]1CCC[C@@H]1Nc1ncc(C(F)(F)F)c(-c2c[nH]c3cc(C#N)ccc23)n1
4. Cc1noc(C)c1-c1ccc2c(-c3nc(N[C@H]4CCC[C@@H]4NCC(F)F)ncc3C(F)(F)F)c[nH]c2n1
5. CN(C)[C@H]1CCC[C@@H]1Nc1ncc(C(F)(F)F)c(-c2c[nH]c3cc(C#N)ccc23)n1

### Response
["< 5.70", "5.70 to 6.30", "< 5.70", "5.70 to 6.30", "5.70 to 6.30"]

====

Target: CDK12 (aa686-1082)/Cyclin K complex (Homo sapiens, UniProt Q9NYV4)
Sequence (Q9NYV4 686-1082): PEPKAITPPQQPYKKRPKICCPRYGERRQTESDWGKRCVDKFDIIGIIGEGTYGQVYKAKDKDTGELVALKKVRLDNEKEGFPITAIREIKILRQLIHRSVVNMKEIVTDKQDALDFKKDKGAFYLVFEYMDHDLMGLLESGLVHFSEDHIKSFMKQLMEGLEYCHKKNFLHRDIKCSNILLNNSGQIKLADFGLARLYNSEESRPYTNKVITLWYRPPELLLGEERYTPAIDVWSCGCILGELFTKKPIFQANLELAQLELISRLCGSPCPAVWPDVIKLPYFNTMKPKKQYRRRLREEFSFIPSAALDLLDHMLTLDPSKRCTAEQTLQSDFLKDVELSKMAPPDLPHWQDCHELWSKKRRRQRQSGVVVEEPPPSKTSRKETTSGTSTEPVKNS
Sequence (O75909 whole entry partner, the tested form may be a part): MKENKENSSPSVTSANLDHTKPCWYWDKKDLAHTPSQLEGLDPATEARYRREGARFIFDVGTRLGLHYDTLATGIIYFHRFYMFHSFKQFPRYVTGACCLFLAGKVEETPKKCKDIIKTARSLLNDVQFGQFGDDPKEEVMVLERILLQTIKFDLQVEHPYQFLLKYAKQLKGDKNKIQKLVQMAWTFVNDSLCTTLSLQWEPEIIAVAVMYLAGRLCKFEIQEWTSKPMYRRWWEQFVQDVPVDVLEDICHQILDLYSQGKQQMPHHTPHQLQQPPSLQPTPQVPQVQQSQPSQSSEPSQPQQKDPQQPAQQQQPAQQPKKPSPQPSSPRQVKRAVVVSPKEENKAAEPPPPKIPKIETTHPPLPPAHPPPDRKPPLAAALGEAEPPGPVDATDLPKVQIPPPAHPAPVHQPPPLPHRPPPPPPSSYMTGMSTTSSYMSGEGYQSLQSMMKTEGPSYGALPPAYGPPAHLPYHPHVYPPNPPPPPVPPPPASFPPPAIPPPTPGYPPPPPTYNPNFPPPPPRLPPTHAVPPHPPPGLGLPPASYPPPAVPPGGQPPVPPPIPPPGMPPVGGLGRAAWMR
Test: CDK12 kinase inhibition assay (Caliper/LabChip EZ Reader)
pIC50: −log10 of the molar value.
parameter.measured: pIC50

Below, each entry is followed by its recorded pIC50 result.
INSERT INTO assay_data (compound, study_system, obs_value) VALUES
  ('Cc1noc(C)c1-c1ccc2c(-c3nc(N[C@H]4CCC[C@@H]4N4CCCC4)ncc3C(F)(F)F)c[nH]c2c1', 'CDK12 (aa686-1082)/Cyclin K complex (Homo sapiens, UniProt Q9NYV4)', '< 6.30'),
  ('CP(C)(=O)c1c(C#N)ccc2c(-c3nc(N[C@H]4CCC[C@@H]4N)ncc3C(F)(F)F)c[nH]c12', 'CDK12 (aa686-1082)/Cyclin K complex (Homo sapiens, UniProt Q9NYV4)', '< 6.30'),
  ('Cc1noc(C)c1-c1ccc2c(-c3nc(N[C@H]4CCC[C@@H]4NCCF)ncc3C(F)(F)F)c[nH]c2n1', 'CDK12 (aa686-1082)/Cyclin K complex (Homo sapiens, UniProt Q9NYV4)', '< 6.30'),
  ('N#Cc1ccc2c(-c3nc(NC[C@@H]4COCCN4)ncc3C(F)(F)F)c[nH]c2c1', 'CDK12 (aa686-1082)/Cyclin K complex (Homo sapiens, UniProt Q9NYV4)', '< 6.30'),
  ('N#Cc1ccc2c(-c3nc(N[C@H]4CC[C@@H]4N4CCCC4)ncc3C(F)(F)F)c[nH]c2c1', 'CDK12 (aa686-1082)/Cyclin K complex (Homo sapiens, UniProt Q9NYV4)', '< 6.30');

Look at each compound and report its pIC50.
1. CN(C)[C@H]1CCC[C@@H]1Nc1ncc(C(F)(F)F)c(-c2c[nH]c3cc(C#N)ccc23)n1
2. C[C@@H]1C[C@H](Nc2ncc(C(F)(F)F)c(-c3c[nH]c4cc(C#N)ccc34)n2)CN1
3. N#Cc1ccc2c(-c3nc(N[C@@H]4CNC[C@H]4F)ncc3C(F)(F)F)c[nH]c2c1 (relative stereo)
4. Cc1noc(C)c1-c1ccc2c(-c3nc(N[C@@H]4C[C@@H]5CC[C@H]4N5)ncc3C(F)(F)F)c[nH]c2c1

### Response
< 6.30
< 6.30
< 6.30
< 6.30

====

Target: CDK2/Cyclin E1 complex (Homo sapiens)
Assay: CDK2 kinase inhibition assay (Caliper/LabChip EZ Reader)
Conditions: read-out: CDK 2 calculated IC50; ATP 2 mM, 27° C., 35 min incubation, 2 mM MgCl2
pIC50: −log10 of the molar value.
parameter.measured: pIC50

### Prompt Lab request: please report pIC50 under test system CDK2/Cyclin E1 complex (Homo sapiens) for Cc1noc(C)c1-c1ccc2c(-c3nc(N[C@@H]4C[C@H]5CC[C@@H]4N5)ncc3C(F)(F)F)c[nH]c2c1 [Compound 138]
### Response < 6.30

====

Molecular target: CDK7/Cyclin H/MAT1 complex (Homo sapiens, UniProt P50613)
Sequence (P50613 whole entry): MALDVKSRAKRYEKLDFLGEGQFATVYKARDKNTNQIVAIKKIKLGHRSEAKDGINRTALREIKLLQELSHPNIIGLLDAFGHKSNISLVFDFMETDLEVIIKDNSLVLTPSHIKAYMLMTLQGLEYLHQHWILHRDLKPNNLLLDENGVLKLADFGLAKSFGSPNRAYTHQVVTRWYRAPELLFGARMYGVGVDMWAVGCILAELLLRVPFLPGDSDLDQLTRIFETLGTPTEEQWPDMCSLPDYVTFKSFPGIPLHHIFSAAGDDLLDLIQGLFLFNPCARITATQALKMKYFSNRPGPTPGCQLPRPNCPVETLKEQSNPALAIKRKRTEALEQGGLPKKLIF
Sequence (P51946 whole entry partner): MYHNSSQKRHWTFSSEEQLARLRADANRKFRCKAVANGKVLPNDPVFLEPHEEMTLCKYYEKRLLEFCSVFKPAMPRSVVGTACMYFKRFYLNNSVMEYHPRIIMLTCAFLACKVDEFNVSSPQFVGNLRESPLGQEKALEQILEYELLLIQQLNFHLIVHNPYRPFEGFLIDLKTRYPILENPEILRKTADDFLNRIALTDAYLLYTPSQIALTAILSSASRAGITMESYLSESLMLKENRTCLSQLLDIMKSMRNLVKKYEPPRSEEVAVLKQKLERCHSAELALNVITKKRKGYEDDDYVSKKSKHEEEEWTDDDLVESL
Sequence (P51948 whole entry partner): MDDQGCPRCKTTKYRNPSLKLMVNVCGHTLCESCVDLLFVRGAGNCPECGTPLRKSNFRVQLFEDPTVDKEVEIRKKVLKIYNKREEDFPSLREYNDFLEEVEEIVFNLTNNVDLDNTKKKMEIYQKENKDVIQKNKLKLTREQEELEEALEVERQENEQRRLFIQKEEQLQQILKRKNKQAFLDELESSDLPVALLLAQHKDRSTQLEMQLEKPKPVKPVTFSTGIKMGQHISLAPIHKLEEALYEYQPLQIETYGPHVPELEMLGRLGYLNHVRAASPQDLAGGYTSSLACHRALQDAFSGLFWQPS
Assay: CDK7 kinase inhibition assay (Caliper/LabChip EZ Reader)
parameter.measured: IC50

Below, each entry is followed by its recorded IC50 result.
INSERT INTO assay_data (compound, study_system, obs_value) VALUES
  ('CCN[C@H]1CC[C@@H]1Nc1ncc(C(F)(F)F)c(-c2c[nH]c3nc(-c4c(C)noc4C)ccc23)n1', 'CDK7/Cyclin H/MAT1 complex (Homo sapiens, UniProt P50613)', '< 30 nM'),
  ('N#Cc1ccc2c(-c3nc(N[C@H]4CCCC[C@@H]4N)ncc3C(F)(F)F)c[nH]c2c1', 'CDK7/Cyclin H/MAT1 complex (Homo sapiens, UniProt P50613)', '> 500 nM'),
  ('Cc1noc(C)c1-c1ccc2c(-c3nc(NC4CCCC4N)ncc3C(F)(F)F)c[nH]c2n1 (stereo not shown)', 'CDK7/Cyclin H/MAT1 complex (Homo sapiens, UniProt P50613)', '< 30 nM'),
  ('N#Cc1ccc2c(-c3nc(N[C@H]4CC[C@@H]4N)ncc3C(F)(F)F)c[nH]c2c1', 'CDK7/Cyclin H/MAT1 complex (Homo sapiens, UniProt P50613)', '< 30 nM'),
  ('Cc1noc(C)c1-c1ccc2c(-c3nc(N[C@H]4CCC[C@@H]4N4CC(F)(F)C4)ncc3C(F)(F)F)c[nH]c2n1', 'CDK7/Cyclin H/MAT1 complex (Homo sapiens, UniProt P50613)', '> 500 nM'),
  ('Cc1noc(C)c1-c1ccc2c(-c3nc(N[C@H]4CCC[C@@H]4N4CCCC4)ncc3C(F)(F)F)c[nH]c2c1', 'CDK7/Cyclin H/MAT1 complex (Homo sapiens, UniProt P50613)', '< 30 nM');

Okay, next one:
### Prompt Report IC50 for Cc1noc(C)c1-c1ccc2c(-c3nc(N[C@H]4CC[C@@H]4N)ncc3C(F)(F)F)c[nH]c2c1 please.
### Response < 30 nM
